# TARGET_UNDER_TEST: NDM-1 (Klebsiella pneumoniae, UniProt C7C422)
# Sequence (C7C422 whole entry, looked up, species assumed): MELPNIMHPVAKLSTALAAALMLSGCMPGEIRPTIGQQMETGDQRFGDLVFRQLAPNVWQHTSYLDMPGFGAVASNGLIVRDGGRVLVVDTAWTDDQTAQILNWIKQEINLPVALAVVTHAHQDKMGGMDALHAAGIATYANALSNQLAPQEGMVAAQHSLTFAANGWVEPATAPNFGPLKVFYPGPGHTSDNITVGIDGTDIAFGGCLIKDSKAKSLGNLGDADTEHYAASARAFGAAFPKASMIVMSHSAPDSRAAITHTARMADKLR
# TEST_PROTOCOL: biochemical
# Assay type: biochemical
# EXPERIMENTAL_CONDITIONS: fluorescence assay with CCF2-FA substrate; read-out: NDM-1 IC50
Here, each record is paired with measured IC50 data.
RECORDED_METRIC: IC50 (nM)

> print(dat)
                                   compound                         target.under.test  recorded.metric  observed.result
1  CN1CCN(c2cc(-c3cccc(S(N)(=O)=O)c3-c3nnn[nH]3)ccn2)CC1 [Example 116]  NDM-1 (Klebsiella pneumoniae, UniProt C7C422)             IC50             5.43
2  NCCNC1CCC(c2ccc(C(F)(F)F)c(S(N)(=O)=O)c2-c2nnn[nH]2)CC1 (stereo not shown) [Example 827]  NDM-1 (Klebsiella pneumoniae, UniProt C7C422)             IC50             5.72
3  N[C@@H]1CN(c2ccc(C(F)(F)F)c(S(N)(=O)=O)c2-c2nnn[nH]2)CC12CC2 [Example 754]  NDM-1 (Klebsiella pneumoniae, UniProt C7C422)             IC50              596
4  NS(=O)(=O)c1c(C(F)(F)F)ccc(-c2ccc3c(c2)CNC3=O)c1-c1nnn[nH]1 [Example 746]  NDM-1 (Klebsiella pneumoniae, UniProt C7C422)             IC50             2.27
